Molecular target: JAK1 (h) (Homo sapiens (Human))
Sequence (P23458 whole entry): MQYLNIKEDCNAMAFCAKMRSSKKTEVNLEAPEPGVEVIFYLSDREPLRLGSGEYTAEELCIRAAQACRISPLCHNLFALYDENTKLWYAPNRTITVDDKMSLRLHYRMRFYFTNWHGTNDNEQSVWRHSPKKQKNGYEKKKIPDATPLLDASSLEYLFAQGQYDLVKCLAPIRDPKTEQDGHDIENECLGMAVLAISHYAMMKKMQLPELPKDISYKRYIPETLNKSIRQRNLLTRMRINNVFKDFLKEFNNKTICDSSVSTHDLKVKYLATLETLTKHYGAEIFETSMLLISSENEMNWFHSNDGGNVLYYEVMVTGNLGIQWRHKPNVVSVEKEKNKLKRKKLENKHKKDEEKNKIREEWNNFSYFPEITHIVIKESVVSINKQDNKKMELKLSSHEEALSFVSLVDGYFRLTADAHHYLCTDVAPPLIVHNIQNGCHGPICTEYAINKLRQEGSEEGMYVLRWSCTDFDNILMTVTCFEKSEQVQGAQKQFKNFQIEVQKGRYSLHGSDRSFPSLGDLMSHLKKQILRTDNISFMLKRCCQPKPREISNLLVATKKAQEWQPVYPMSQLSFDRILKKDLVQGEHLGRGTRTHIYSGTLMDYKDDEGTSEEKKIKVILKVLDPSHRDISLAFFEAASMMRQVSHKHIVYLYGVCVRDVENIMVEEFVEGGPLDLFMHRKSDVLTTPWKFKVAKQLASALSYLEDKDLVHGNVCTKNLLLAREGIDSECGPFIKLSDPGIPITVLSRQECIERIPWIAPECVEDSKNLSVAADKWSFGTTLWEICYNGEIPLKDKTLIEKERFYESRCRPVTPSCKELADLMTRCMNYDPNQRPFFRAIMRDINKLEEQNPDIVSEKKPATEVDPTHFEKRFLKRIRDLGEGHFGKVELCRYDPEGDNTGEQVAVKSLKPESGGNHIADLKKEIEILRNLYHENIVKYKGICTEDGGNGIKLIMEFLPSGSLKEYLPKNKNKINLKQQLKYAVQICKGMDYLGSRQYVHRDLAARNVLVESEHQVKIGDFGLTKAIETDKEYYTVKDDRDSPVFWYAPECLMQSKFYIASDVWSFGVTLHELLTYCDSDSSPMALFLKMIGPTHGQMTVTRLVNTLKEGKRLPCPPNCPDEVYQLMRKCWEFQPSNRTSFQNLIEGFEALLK
Test: In vitro activity assay of JAK1 kinase (radiometric 33P-ATP, Eurofins)
Settings: recombinant human JAK1
Classify: Met when IC50 is strictly less than 100 nM; Not met when IC50 is not.

- compound: "O=C(Nc1nc2cccc(C3CCC(NC(=O)[C@H]4CC4(F)F)CC3)n2n1)C1CC1 (single isomer, unassigned) [Compound 8-4]"
  category.label: "Not met"
- compound: "O=C(Nc1nc2cccc(C3=CC[C@@H](NC(=O)[C@H]4CC4(F)F)CC3)n2n1)C1CC1"
  category.label: "Not met"
- compound: "O=C(Nc1nc2cccc(C3CCC(NC(=O)[C@@H]4CC4(F)F)CC3)n2n1)C1CC1 (single isomer, unassigned) [Compound 8-3]"
  category.label: "Not met"
- compound: "O=C(Nc1nc2cccc(C3=CC[C@H](NC(=O)[C@@H]4CC4(F)F)CC3)n2n1)C1CC1"
  category.label: "Not met"
- compound: "O=C(Nc1nc2cccc(C3=CC[C@H](NC(=O)[C@H]4CC4(F)F)CC3)n2n1)C1CC1"
  category.label: "Met"
- compound: "O=C(Nc1nc2cccc(C3=CCN(C(=O)C4(F)CC4)C3)n2n1)C1CC1"
  category.label: "Not met"
- compound: "O=C(Nc1nc2nccc(C3CCC(NC(=O)C4CC4(F)F)CC3)c2s1)C1CC1 (stereo not shown)"
  category.label: "Not met"
- compound: "O=C(Nc1nc2cccc(C3CCC(NC(=O)[C@@H]4CC4(F)F)CC3)n2n1)C1CC1 (single isomer, unassigned) [Compound 8-1]"
  category.label: "Not met"
- compound: "O=C(Nc1nc2cccc(C3CCC(NC(=O)[C@H]4CC4(F)F)CC3)n2n1)C1CC1 (single isomer, unassigned) [Compound 8-2]"
  category.label: "Met"
- compound: "O=C(Nc1nc2cccc(C3=CCN(C(=O)C4CC4(F)F)C3)n2n1)C1CC1 (stereo not shown)"
  category.label: "Met"
- compound: "O=C(Nc1nc2cccc(C3CCC(NC(=O)C4(F)CC4)CC3)n2n1)C1CC1 (stereo not shown)"
  category.label: "Met"
- compound: "O=C(Nc1nc2cccc(C3=CCN(C(=O)C4CC4)CC3)n2n1)C1CC1"
  category.label: "Met"
- compound: "O=C(Nc1nc2cccc(C3=CCC(NC(=O)C4CC4)CC3)n2n1)C1CC1 (stereo not shown)"
  category.label: "Not met"
